- EXPERIMENT SUMMARY: Thermal stability by differential scanning calorimetry
- Assay type: physicochemical
- EXPERIMENTAL CONDITIONS: cysteine-NEM conjugates, DSC 25-100° C., 1° C. per minute
Give First Scan Tm for every item shown.
Give bare numbers, in °C.

Study these solved cases before continuing.
[[record]]
molecule = "R54C (protein, EGFR binding FN3 domain; EGFR-binding FN3 domain) chain 1: MLPAPKNLVVSEVTEDSARLSWDDPWAFYESFLIQYQESEKVGEAIVLTVPGSECSYDLTGLKPGTEYTVSIYGVHNVYKDTNMRGLPLSAIFTT chain 2: LPAPKNLVVSEVTEDSARLSWDDPWAFYESFLIQYQESEKVGEAIVLTVPGSECSYDLTGLKPGTEYTVSIYGVHNVYKDTNMRGLPLSAIFTT"
unit_abbrev = "°C"
number = 65

[[record]]
molecule = "S89C (protein, EGFR binding FN3 domain; EGFR-binding FN3 domain) chain 1: MLPAPKNLVVSEVTEDSARLSWDDPWAFYESFLIQYQESEKVGEAIVLTVPGSERSYDLTGLKPGTEYTVSIYGVHNVYKDTNMRGLPLCAIFTT chain 2: LPAPKNLVVSEVTEDSARLSWDDPWAFYESFLIQYQESEKVGEAIVLTVPGSERSYDLTGLKPGTEYTVSIYGVHNVYKDTNMRGLPLCAIFTT"
unit_abbrev = "°C"
number = 72

[[record]]
molecule = "V8C (protein, EGFR binding FN3 domain; EGFR-binding FN3 domain) chain 1: MLPAPKNLCVSEVTEDSARLSWDDPWAFYESFLIQYQESEKVGEAIVLTVPGSERSYDLTGLKPGTEYTVSIYGVHNVYKDTNMRGLPLSAIFTT chain 2: LPAPKNLCVSEVTEDSARLSWDDPWAFYESFLIQYQESEKVGEAIVLTVPGSERSYDLTGLKPGTEYTVSIYGVHNVYKDTNMRGLPLSAIFTT"
unit_abbrev = "°C"
number = 69

[[record]]
molecule = "S16C (protein, EGFR binding FN3 domain; EGFR-binding FN3 domain) chain 1: MLPAPKNLVVSEVTEDCARLSWDDPWAFYESFLIQYQESEKVGEAIVLTVPGSERSYDLTGLKPGTEYTVSIYGVHNVYKDTNMRGLPLSAIFTT chain 2: LPAPKNLVVSEVTEDCARLSWDDPWAFYESFLIQYQESEKVGEAIVLTVPGSERSYDLTGLKPGTEYTVSIYGVHNVYKDTNMRGLPLSAIFTT"
unit_abbrev = "°C"
number = 68


Proceed to the following item.
// First Scan Tm value for S20C (protein, EGFR binding FN3 domain; EGFR-binding FN3 domain) chain 1: MLPAPKNLVVSEVTEDSARLCWDDPWAFYESFLIQYQESEKVGEAIVLTVPGSERSYDLTGLKPGTEYTVSIYGVHNVYKDTNMRGLPLSAIFTT chain 2: LPAPKNLVVSEVTEDSARLCWDDPWAFYESFLIQYQESEKVGEAIVLTVPGSERSYDLTGLKPGTEYTVSIYGVHNVYKDTNMRGLPLSAIFTT : 70
